target: OXA-48 (Klebsiella pneumoniae, UniProt Q6XEC0); experiment: Inhibition of purified class D carbapenemase OXA-48 (Ki, carbapenem substrates); format: biochemical; conditions: purified OXA-48, substrate biapenem; read-out: Ki OXA-48, Biapenem
Sequence (Q6XEC0 23-265, looked up): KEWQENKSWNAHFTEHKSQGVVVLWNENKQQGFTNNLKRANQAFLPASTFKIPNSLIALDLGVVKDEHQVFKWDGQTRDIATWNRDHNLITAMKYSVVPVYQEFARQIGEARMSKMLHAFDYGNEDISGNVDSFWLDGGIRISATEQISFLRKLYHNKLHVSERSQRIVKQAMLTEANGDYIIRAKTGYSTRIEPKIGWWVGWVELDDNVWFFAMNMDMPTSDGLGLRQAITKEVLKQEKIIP
parameter-measured: Ki

[[record]]
compound = "CSc1ccc2c(c1C(=O)O)OB(O)[C@@H](Sc1nnc(N)s1)C2 [Compound 30]"
tgt = "OXA-48 (Klebsiella pneumoniae, UniProt Q6XEC0)"
parameter_measured = "Ki"
measurement = "10 to 100 nM"

[[record]]
compound = "NC(=O)CS[C@H]1Cc2cccc(C(=O)O)c2OB1O [Compound 3]"
tgt = "OXA-48 (Klebsiella pneumoniae, UniProt Q6XEC0)"
parameter_measured = "Ki"
measurement = "< 10 nM"

[[record]]
compound = "O=C(O)c1cccc2c1OB(O)[C@@H](OC1CNC1)C2 [Compound 18]"
tgt = "OXA-48 (Klebsiella pneumoniae, UniProt Q6XEC0)"
parameter_measured = "Ki"
measurement = "< 10 nM"

[[record]]
compound = "COc1ccc2c(c1C(=O)O)OB(O)[C@@H](Sc1nnc(N)s1)C2 [Compound 27]"
tgt = "OXA-48 (Klebsiella pneumoniae, UniProt Q6XEC0)"
parameter_measured = "Ki"
measurement = "10 to 100 nM"

